Biological target: T1, LTKTG-EGFL (human LTK amino acids 63-420) (human, UniProt P29376 63-420)
T1 construct: Fc-His6 tag removed by caspase 3; also called LTK (in BLI, SEC-MALLS and ITC)
T1 sequence: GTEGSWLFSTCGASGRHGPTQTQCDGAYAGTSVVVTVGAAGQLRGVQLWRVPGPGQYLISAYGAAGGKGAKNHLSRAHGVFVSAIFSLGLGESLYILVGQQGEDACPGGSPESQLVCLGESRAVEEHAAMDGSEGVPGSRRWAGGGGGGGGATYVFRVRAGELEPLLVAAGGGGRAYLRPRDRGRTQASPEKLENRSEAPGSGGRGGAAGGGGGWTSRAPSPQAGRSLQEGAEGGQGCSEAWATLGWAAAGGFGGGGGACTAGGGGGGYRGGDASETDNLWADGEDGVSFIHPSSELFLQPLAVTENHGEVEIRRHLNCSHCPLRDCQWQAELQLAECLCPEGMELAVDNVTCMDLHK
Experiment: BLI, biotinylated ALKAL2 F97E on streptavidin biosensors, LTKTG-EGFL in solution, dilution series 6.4 µM-400 nM; only component 1 is printed
Readout Kind: pKd
Please report pKd as the negative decimal logarithm of the molar concentration, giving only the number.

Request: State the recorded pKd for this entry: ALKAL2^F97E (residues 78-152) (ligand, human, UniProt Q6UX46 78-152, looked up, range 78-152; Avi-tagged and biotinylated in BLI; used as purified protein in SEC-MALLS and Ba/F3 assays; also called ALKAL2 site 2 mutant F97E) PSPEQRVEIVPRDLRMKDKELKHLTGPLYFSPKCSKHFHRLYHNTRDCTIPAYYKRCARLLTRLAVSPVCMEDKQ
Response: 5.08
